# key: entry, value: inhibition
assay: yeast transport mutant growth inhibition pilot in 384-well plates, post-Golgi transport modulator project (AID 636); settings: absorbance 615 nm, about 18 h, stronger effect = higher value
The source made the active and inactive calls. No stated cut-off is given here; in the data, active means inhibition above about 31%; inactive means the rest.

Here are 6 compounds together with their reported answers.
Clc1ccc(SCCCCn2ccnc2)cc1 : 1.22% (inactive)
Cc1ccccc1NC(=O)C1CCCN(S(=O)(=O)c2cccc3cccnc23)C1 (stereo not drawn) : -1.73% (inactive)
CCN1C(=C2C(=O)c3ccccc3C2=O)C=Cc2ccccc21 : 0.64% (inactive)
CCN1CCN(c2nc(C)nc3c2sc(=S)n3C)CC1 : -3.73% (inactive)
Cc1cc(C)nc(SCc2csc(N)n2)n1 : -0.26% (inactive)
Cc1cccc(N2CCN(C(=O)Cn3nc(Cc4ccncc4)c4ccccc4c3=O)CC2)c1C : -5.6% (inactive)

Can you look up the measured inhibition of CC(CCc1ccco1)NC(=O)Cn1ncc2c1-c1ccccc1OC2 (stereo not drawn) for me?
-2.4% (inactive)

Can you look up the measured inhibition of `Fc1ccc(-c2nnc3ccc(N4CCCC4)nn23)cc1` for me?
-0.27% (inactive)

###

experiment: S. cerevisiae growth inhibition in restrictive medium, OD615, pilot screen, restrictive growth control, yeast lifespan reduction project (AID 706); conditions: OD615, 48 h, at 10 µM;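 further: modified DeaD lifespan yeast strain shifted to restrictive glucose medium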
Active and inactive are the calls of the source.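 Rule for the calls: active = growth inhibition above a set limit, 3 SD over mean compound inhibition, in both replicates (cut at about 43% in these data); inconclusive = above the limit in only one replicate; inactive = at or below the limit in both replicates.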
Log the outcome using a class from y for active, n for inactive

Example results:
CC1(C)Cc2c(C#N)c(N)sc(=S)c2CO1 : y
C=C(C)c1cccc(C(C)(C)NC(=O)NCC2CCCO2)c1 (stereo unspecified) : n
CC(C)(O)C#Cc1ccc(C(=O)N2CCN(C(=O)c3ccco3)CC2)cc1 : n
COC(=O)Cn1c(=O)c2c(nc3n2CC(C)CN3c2ccc(C)c(C)c2)n(C)c1=O (stereo unspecified) : n
CC1=C(C(=O)OC(C)C)C(c2cccc(F)c2)n2ncnc2N1 (stereo unspecified) : n
CN(CCCNC(=O)C1CCC(=O)N1Cc1ccc(F)cc1)c1ccccc1 (stereo unspecified) : n
COc1ccccc1-c1cc(C(F)(F)F)nc(N2CCOCC2)n1 : n
COc1ccc(OC)c2sc(NC(=O)C3COc4ccccc4O3)nc12 (stereo unspecified) : n
O=C(Nc1nc(-c2nc3ccccc3s2)cs1)C1COc2ccccc2O1 (stereo unspecified) : n
CCOC(=O)Nc1sc(NS(=O)(=O)c2ccccc2)nc1C : n

Moving on to the next compound.
Record request — test call for `Cc1cc(C)c(OCC(=O)Nc2cccc(NC(=O)c3ccco3)c2)c(Br)c1`
n

###

# key: entry, value: growth inhibition
assay: S. cerevisiae growth inhibition in permissive medium (OD615), pilot counter-assay for S. cerevisiae lifespan shortening project, permissive growth control (AID 705); conditions: OD615, 24 h, at 10 µM, stronger effect = higher value
// units = %; emit number, no label

Here are 2 compounds together with their reported answers.
Cc1ccc(-c2nc(C#N)c(N3CCCCC3)o2)cc1 : -4.44
Cn1c(=O)[nH]c(=O)c2c1nc(N1CCCCC1)n2CCSc1ncccn1 : 1.54

Can you look up the measured growth inhibition of `Cc1ccc(C)c(N2C(=O)CN=C2Nc2ccccc2Cl)c1` for me?
-7.25

Can you look up the measured growth inhibition of COc1ccc(N2CCN(C(c3ccccc3)c3sc4nc(C)nn4c3O)CC2)cc1 (stereo not drawn) for me?
1.81

Can you look up the measured growth inhibition of `COc1ccc(S(=O)(=O)Cc2ccc(C(=O)N3CCN(c4ccccc4)CC3)o2)cc1` for me?
-11.7

Can you look up the measured growth inhibition of `Cc1nnc(SCC(=O)NCc2ccccc2)s1` for me?
-11.3

Can you look up the measured growth inhibition of Cc1c(C(=O)OC2CCC(C)CC2)[nH]c2c1C(=O)CCC2 (stereo not drawn) for me?
-11.8

###

experiment: H69AR cell proliferation blockers – human, duplicate replicates, primary screen (AID 580); settings: H69AR lung tumor cells viability, ATP luminescence, 72 h; at 10 µM; stronger effect = lower value;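 further: 100% = mean luminescence of untreated wells and 0% = no signal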
The source made the active and inactive calls.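 Rule for the calls: active = viability at or under a set limit in both replicates, limit being median viability minus 3 SD (cut at about 48% in these data, passing the limit was not always enough); inconclusive = at or under the limit in just one replicate; inactive = at or above the limit in both replicates.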
recorded endpoint: viability

Here are 5 compounds together with their reported answers.
CC1(C)NC(=O)N(CC(O)COc2cccc(F)c2)C1=O (stereo unspecified) : 101% (inactive)
CCC(C)(NC(=O)CNC(C)=O)C(=O)NC1CCCCC1 (stereo unspecified) : 94% (inactive)
Cc1ccc(C2c3c(oc4ccccc4c3=O)C(=O)N2c2nnc(C(C)C)s2)o1 (stereo unspecified) : 11.2% (active)
O=C(CCNS(=O)(=O)c1cccc2nsnc12)NCc1cccs1 : 96% (inactive)
Cc1ccc(-c2nc3cnccn3c2Nc2ccc3c(c2)OCO3)o1 : 77.7% (inactive)

Can you look up the measured viability of `CC(C)c1nccn1S(=O)(=O)c1cc(Cl)ccc1Cl` for me?
90.3% (inactive)

Can you look up the measured viability of CCN(CC)C(=O)C1CCCN(c2ncnc3c2cnn3-c2ccc(Cl)cc2)C1 (stereo unspecified) for me?
86.1% (inactive)

###

test: S. cerevisiae growth inhibition in permissive medium (OD615), pilot counter-assay for S. cerevisiae lifespan shortening project, permissive growth control (AID 705); settings: OD615, 24 h, at 10 µM, stronger effect = higher value
Active and inactive are the calls of the source.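 How the source made its calls: active means growth inhibition above 25% in both replicates, a cutoff set 3 SD above the mean; inconclusive means above 25% in only one replicate; inactive means the rest.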
recorded endpoint: growth inhibition

Cc1noc(/C=C/N(C)C)c1S(=O)(=O)N1CCCC(C(=O)N2CCCCC2)C1 (stereo unspecified) : 4.08% (inactive)
CCOC(=O)N1CCN(c2cc(=O)n(-c3cccc(Br)c3)c(=O)[nH]2)CC1 : -9.72% (inactive)
Cc1ccc(-c2nc(-c3ccccc3)no2)c(Cl)c1 : -6.6% (inactive)
Cc1ccnc(NC2c3ccccc3C(=O)N2Cc2ccccc2Cl)c1 (stereo unspecified) : 4.26% (inactive)
CCOCCCNC(=O)C(c1ccccc1)N(Cc1ccc2c(c1)OCO2)C(=O)CNC(C)=O (stereo unspecified) : 3.28% (inactive)

Can you look up the measured growth inhibition of `COc1ccc(N2CCN(CCNC(=O)CCS(=O)(=O)c3cccc4nsnc34)CC2)cc1` for me?
0.45% (inactive)

###

experiment: H69AR cell proliferation blockers – human, duplicate replicates, primary screen (AID 580); conditions: H69AR lung tumor cells viability, ATP luminescence, 72 h; at 10 µM; stronger effect = lower value;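 further: 100% = mean luminescence of untreated wells and 0% = no signal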
recorded endpoint: viability (%)
// units = %; emit number, no label

Cc1n[nH]c(C)c1N1C(=O)c2cccc3cc(Br)cc(c23)C1=O : 81.1
Cn1nnc2cc(C(=O)N3CCCCCC3)ccc21 : 105

Can you look up the measured viability of `CCc1nc2sc(C)c(C)c2c(=O)n1CCO` for me?
94.7

Can you look up the measured viability of `Cc1cc(/C=N/n2cnnc2)c(C)n1-c1cccc(Cl)c1` for me?
86.4

Data provenance: PubChem BioAssay
